Taken from PubChem BioAssay AID624296.

Assay: A quantitative high throughput screen for small molecules that induce DNA re-replication in MCF 10a normal breast cells. Further: nearly all actives have a fitted effect of over 50% in size.
Settings: MCF 10A DNA re-replication, Hoechst nuclear intensity, 48 h; series mostly up to 46.1 µM
Text: H Molecular Libraries Probe Production Network [MLPCN] NIH Chemical Genomics Center [NCGC] Assay Provider: Melvin DePamphilis, NICHD, NIH Eukaryotic cells normally restrict genome duplication to once per cell division. […] To identify compounds that induce re-replication in normal cells, an image-based assay was used to measure DNA content of nuclei, as detected by the fluorescent DNA binding dye, Hoechst. […]
About 9,900 (2.8%) of roughly 350,000 compounds were called active. Inconclusive results (about 15%) are left out. The call rests on the fitted dose curve; in most records, active means well fitted activation curve with a large enough effect; inconclusive means small, poorly fitted or top-dose-only effect; inactive means no such curve, though single readings can be large or run the other way. Only a selection was taken, and actives are over-represented in it overall.
Classes used: active, inactive

- Compound: "O=C(CN1C(=O)NC2(CCOc3ccccc32)C1=O)NCc1ccc(F)cc1 (configuration not stated)"
  Label Value: "inactive"
- Compound: "O=C(Cc1nn[nH]n1)NCCC1=CCCCC1"
  Label Value: "inactive"
- Compound: "Cc1ccccc1-c1ccc(Nc2ccc(C(=O)N3CCOCC3)cc2)nn1"
  Label Value: "inactive"
- Compound: "Cc1oc2c(c1C(=O)N1CCOCC1)C(=O)c1ccccc1C2=O"
  Label Value: "active"
- Compound: "Cc1cccn2c(=O)c(/C=C(\\C#N)C(N)=O)c(N3CCCCCC3)nc12"
  Label Value: "inactive"
- Compound: "COc1ccc(CCNC(=O)c2ccc(NC(=O)CC3SC(N4CCCCC4)=NC3=O)cc2)cc1OC (configuration not stated)"
  Label Value: "inactive"
- Compound: "Nc1cc(=O)n(Cc2ccccc2)c(=O)n1Cc1ccccc1"
  Label Value: "inactive"
- Compound: "CCCn1c(C(C)Nc2nc(-c3ccc(C)cc3)cs2)nc2cc(Cl)c(N3CCCCC3)cc21 (configuration not stated)"
  Label Value: "inactive"
- Compound: "NC(=O)c1ccccc1N(Cc1ccccc1)S(=O)(=O)c1ccccc1"
  Label Value: "inactive"
- Compound: "Cc1ccc(C)c(NC(=O)COC(=O)c2nn(C)c(=O)c3ccccc23)c1"
  Label Value: "inactive"
- Compound: "Cc1ccc(NC(=O)CC(=O)Nc2ccc(C)cc2)cc1"
  Label Value: "inactive"
- Compound: "CCN1CCN(C(=O)c2ccccc2N(C)S(=O)(=O)c2ccc(C)cc2)CC1"
  Label Value: "inactive"
- Compound: "CC(Oc1ccc(Br)cc1)C(=O)NC1CCCCCC1 (configuration not stated)"
  Label Value: "inactive"
- Compound: "O=C(c1ccc(Cl)c(S(=O)(=O)N2CCCCCC2)c1)N1CCN(c2ccc(O)cc2)CC1"
  Label Value: "inactive"
- Compound: "CCC(CO)Oc1cc(NC(=O)c2ccc(Cl)cc2)c2ncn(C(C)C)c2c1 (configuration not stated)"
  Label Value: "inactive"
- Compound: "O=C(CCl)Nc1ccc(Sc2ccc(NC(=O)CCl)cc2)cc1"
  Label Value: "active"
- Compound: "Cc1ccccc1NC(=O)Cn1c(=O)n(CC2CCCO2)c(=O)c2ccccc21 (configuration not stated)"
  Label Value: "inactive"
- Compound: "CC1Cc2ccccc2N1S(=O)(=O)c1cccc(C(=O)OCC(=O)N2CCOCC2)c1 (configuration not stated)"
  Label Value: "inactive"
- Compound: "O=C(Nc1cccc(F)c1)c1cc(-c2ccco2)nc2ccccc12"
  Label Value: "inactive"
- Compound: "Cc1cccn2c(=O)c3cc(C#N)c(=O)n(CCCN4CCOCC4)c3nc12"
  Label Value: "active"
- Compound: "Cc1cccn2c(=O)c3cc(C#N)c(=NC(=O)c4cccnc4)n(CC4CCCO4)c3nc12 (configuration not stated)"
  Label Value: "active"
- Compound: "CC(=NNC(=O)c1ccncc1)c1ccc(Cl)c(Cl)c1"
  Label Value: "inactive"
